Biological target: human serum albumin (human) (UniProt P02768)
Sequence (P02768 25-609 limits assumed): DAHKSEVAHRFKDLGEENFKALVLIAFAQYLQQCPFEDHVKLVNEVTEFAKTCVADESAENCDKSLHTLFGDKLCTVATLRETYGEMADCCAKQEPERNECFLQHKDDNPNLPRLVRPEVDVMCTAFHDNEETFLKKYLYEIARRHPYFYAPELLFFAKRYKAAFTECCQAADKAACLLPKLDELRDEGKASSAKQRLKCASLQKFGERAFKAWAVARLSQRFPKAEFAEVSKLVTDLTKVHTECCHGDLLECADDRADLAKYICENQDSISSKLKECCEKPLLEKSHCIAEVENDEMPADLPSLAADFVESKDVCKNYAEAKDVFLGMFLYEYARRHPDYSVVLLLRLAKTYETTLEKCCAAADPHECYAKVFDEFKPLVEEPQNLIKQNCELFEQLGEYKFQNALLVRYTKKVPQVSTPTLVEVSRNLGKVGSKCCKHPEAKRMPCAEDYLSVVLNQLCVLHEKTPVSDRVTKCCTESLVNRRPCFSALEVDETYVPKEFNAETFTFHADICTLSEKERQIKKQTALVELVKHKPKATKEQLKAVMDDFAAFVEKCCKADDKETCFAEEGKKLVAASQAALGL
Assay: solution ELISA screen (luminescence)
MEASURED PARAMETER: RLU (RLU)
Value expressed in RLU; do not type the unit.

• SEQ ID NO 268 (designed binder, not shown: small tags and cut ends) MLPAPKNLVVSRVTEDSARLSWTAPDAAFDSFYIAYAEPRPDGEAIYLEVPGSERSYDLTGLKPGTEYSVLIHGVKGGLLSSPLFTT = 117000

So for SEQ ID NO 225 (designed binder, not shown: small tags and cut ends) MLPAPKNLVVSRVTEDSARLSWTAPDAAFDSFYIAYAEPRPDGEAILLQVPGSERSYDLTGLKPGTEYSVLIHGVKGGLLSSPLSASFTT , the logged RLU turned out to be 17000

So for SEQ ID NO 223 (designed binder, not shown: small tags and cut ends) MLPAPKNLVVSRVTEDSARLSWTAPDAAFDSFFIGYLEPQPPGEAIGLAVPGSERSYDLTGLKPGTEYNVTIQGVKGGFPSVPLQANFTT , the logged RLU turned out to be 18300

Data origin: patent US20220332795A1
